Molecular target: HDAC2 (Homo sapiens, UniProt Q92769)
Construct: purchased Reaction Biology Corporation (assay run by the CRO)
Sequence (Q92769 whole entry): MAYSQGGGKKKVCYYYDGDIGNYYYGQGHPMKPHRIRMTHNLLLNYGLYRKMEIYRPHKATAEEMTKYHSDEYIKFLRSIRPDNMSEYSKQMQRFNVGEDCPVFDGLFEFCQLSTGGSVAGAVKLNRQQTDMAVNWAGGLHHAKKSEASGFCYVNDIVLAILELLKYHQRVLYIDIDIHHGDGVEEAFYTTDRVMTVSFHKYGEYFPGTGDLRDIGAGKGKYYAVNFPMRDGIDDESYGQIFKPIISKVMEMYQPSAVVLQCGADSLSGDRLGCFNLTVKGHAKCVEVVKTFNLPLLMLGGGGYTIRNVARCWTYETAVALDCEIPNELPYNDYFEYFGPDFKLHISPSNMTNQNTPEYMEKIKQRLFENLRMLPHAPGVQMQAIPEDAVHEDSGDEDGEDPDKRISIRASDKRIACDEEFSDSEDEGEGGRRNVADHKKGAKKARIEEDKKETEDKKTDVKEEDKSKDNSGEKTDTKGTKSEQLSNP
Test: HDAC2 inhibition, full IC50 measurement (Reaction Biology; fluorogenic p53 peptide RHKK(Ac)AMC)
Assay type: biochemical
Conditions: figure legends, Supp. Table 1; read-out: HDAC2 IC50
Peptide text beside a SMILES is read from it.
Some compounds, each annotated with its measured pIC50.
By convention, pIC50 is the negative base-10 log of a molar concentration.

Specify measured pIC50 for N=C(N)NCCC[C@@H]1NC(=O)[C@@H](CCCNC(=N)N)NC(=O)[C@H]2CCCN2C(=O)[C@@H](Cc2c[nH]cn2)NC(=O)[C@H](Cc2ccc(O)cc2)NC(=O)[C@H](CCCCCS)NC(=O)[C@H](CCc2ccccc2)NC(=O)[C@@H](CCC(N)=O)NC(=O)[C@H](CC(=O)O)NC1=O [des3.3.0, SHA-Tyr-dHis-dPro-dArg- Arg-Asp-dGln-C27] (HELM PEPTIDE1{D.[dQ].[O=C([C@H](CCc1ccccc1)N[*:1])[*:2]].[O=C([C@H](CCCCCS)N[*:1])[*:2]].Y.[dH].[dP].[dR].R}$PEPTIDE1,PEPTIDE1,1:R1-9:R2$$$V2.0) .
8.04

Next:
Specify measured pIC50 for NCCCC[C@@H]1NC(=O)[C@@H]2CCCN2C(=O)[C@H](CC(N)=O)NC(=O)[C@H](CCCCCS)NC(=O)CNC(=O)[C@H](Cc2c[nH]c3ccccc23)NC(=O)[C@@H](CCCCN)NC(=O)[C@H](CCC(N)=O)NC1=O [des1.1.0, SHA-Asn-Pro-Lys-Gln-dLys-Trp-Gly] (HELM PEPTIDE1{G.[O=C([C@H](CCCCCS)N[*:1])[*:2]].N.P.K.Q.[dK].W}$PEPTIDE1,PEPTIDE1,1:R1-8:R2$$$V2.0) .
6.54

Specify measured pIC50 for C[C@H](O)[C@H]1NC(=O)[C@H](Cc2c[nH]c3ccccc23)NC(=O)[C@H](CCCCCS)NC(=O)[C@H](CCCCN)NC(=O)[C@@H](CC(=O)O)NC(=O)[C@@H](CCCCN)NC(=O)[C@@H](CO)NC(=O)[C@H](CC(N)=O)NC(=O)[C@H](CC(=O)O)NC1=O [des2.1.0, SHA-Trp-dThr-Asp-Asn-dSer-dLys-dAsp-Lys] (HELM PEPTIDE1{D.N.[dS].[dK].[dD].K.[O=C([C@H](CCCCCS)N[*:1])[*:2]].W.[dT]}$PEPTIDE1,PEPTIDE1,1:R1-9:R2$$$V2.0) .
7.31
